Target: T1, mouse TMEM106B (mouse, UniProt Q80X71 2-275)
T1 construct: on transiently transfected HEK293 cells, or natively expressed on mouse Neuro2a cells; also called moTMEM106B; murine TMEM106B
Experiment: FACS, HEK293 transfectants;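 also: flow cytometry binding of hybridoma supernatants to HEK293 cells transiently expressing human, cyno or mouse TMEM106B, read as anti-mouse-APC median fluorescence, live cells only, 30 min on ice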
reportedEndpoint: fold-change over parental HEK293 (fold)
Response body: numeric value in fold, unit text excluded.

Answered cases to consult:
binder	reportedEndpoint	resultNumber
anti-TMEM106B antibody TM-12 (antibody, V domains shown) VH: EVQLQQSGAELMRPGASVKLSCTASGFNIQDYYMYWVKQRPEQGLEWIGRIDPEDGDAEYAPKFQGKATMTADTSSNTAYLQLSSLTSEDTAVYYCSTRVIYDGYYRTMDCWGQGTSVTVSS VL: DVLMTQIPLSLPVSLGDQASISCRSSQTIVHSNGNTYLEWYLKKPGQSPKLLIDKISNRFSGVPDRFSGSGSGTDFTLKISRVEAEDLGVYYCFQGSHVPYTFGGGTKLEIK	fold-change over parental HEK293	32.7
anti-TMEM106B antibody TM-10 (antibody, V domains shown) VH: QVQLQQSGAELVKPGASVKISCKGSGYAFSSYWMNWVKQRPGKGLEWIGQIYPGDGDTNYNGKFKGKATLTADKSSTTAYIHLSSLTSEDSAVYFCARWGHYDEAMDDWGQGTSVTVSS VL: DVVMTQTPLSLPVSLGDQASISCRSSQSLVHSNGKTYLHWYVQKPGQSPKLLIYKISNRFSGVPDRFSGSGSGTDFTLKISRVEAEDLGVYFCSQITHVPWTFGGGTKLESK	fold-change over parental HEK293	45.9

Then this binder:
Answer with the recorded fold-change over parental HEK293 of anti-TMEM106B antibody TM-35 (antibody, V domains shown) VH: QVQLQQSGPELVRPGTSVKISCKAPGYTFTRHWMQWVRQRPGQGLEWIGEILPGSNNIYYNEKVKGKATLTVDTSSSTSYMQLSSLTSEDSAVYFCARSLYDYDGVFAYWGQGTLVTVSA VL: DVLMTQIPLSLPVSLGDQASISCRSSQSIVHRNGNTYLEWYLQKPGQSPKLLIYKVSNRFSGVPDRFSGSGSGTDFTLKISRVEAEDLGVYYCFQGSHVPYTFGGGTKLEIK only.
1.04
